Each entry below lists one item and its recorded residual activity value.
- measuredOn: PRKCD (human) (UniProt Q05655)
- Sequence (Q05655 whole entry, looked up): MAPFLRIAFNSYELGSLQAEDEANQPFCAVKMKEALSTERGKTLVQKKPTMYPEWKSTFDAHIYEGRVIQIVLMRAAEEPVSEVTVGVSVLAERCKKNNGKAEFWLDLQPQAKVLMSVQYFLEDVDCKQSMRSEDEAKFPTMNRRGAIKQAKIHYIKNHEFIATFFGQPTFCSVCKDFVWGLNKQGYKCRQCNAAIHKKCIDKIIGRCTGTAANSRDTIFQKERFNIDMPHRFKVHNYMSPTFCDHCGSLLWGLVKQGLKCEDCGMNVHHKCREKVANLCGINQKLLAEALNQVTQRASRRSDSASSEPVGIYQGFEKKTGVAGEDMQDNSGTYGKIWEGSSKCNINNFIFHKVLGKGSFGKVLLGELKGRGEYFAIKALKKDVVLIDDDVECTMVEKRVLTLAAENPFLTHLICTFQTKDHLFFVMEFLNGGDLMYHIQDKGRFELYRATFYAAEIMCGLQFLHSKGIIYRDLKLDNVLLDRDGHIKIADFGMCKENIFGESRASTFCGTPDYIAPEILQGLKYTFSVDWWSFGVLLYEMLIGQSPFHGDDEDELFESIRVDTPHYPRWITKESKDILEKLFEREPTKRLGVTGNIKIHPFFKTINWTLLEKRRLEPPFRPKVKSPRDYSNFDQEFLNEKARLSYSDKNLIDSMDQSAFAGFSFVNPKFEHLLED
- procedureDetails: radiometric filter-binding kinase assay, Kinase HotSpot
- testSettings: compound 0.5 µM; ATP 10 µM
observationType: residual activity (%)

In [3]: df
Out[3]:
                                    molecule    observationtype  u  measured
 0  Nc1nccc(-c2c(-c3ccc(F)cc3)ncn2C2CCNCC2)n1  residual activity  %      99.8
 1  O=C1NC(=O)C(c2cn(CCCO)c3ncccc23)=C1c1cnccn1  residual activity  %        97
 2          Cn1nc2c3c(cccc31)C(=O)c1ccccc1-2  residual activity  %      92.3
 3       CCN(CC)CCCCN1c2ccccc2Oc2ccc(Cl)cc21  residual activity  %      95.4
 4  CCn1cnc2c(Nc3cccc(Cl)c3)nc(N[C@@H]3CCCC[C@@H]3N)nc21  residual activity  %      91.2
 5  CC(C)c1nn(-c2c(Cl)cccc2Cl)c2nc(Cc3ccc(OCCO)cc3)nc(O)c12  residual activity  %       108
 6  O=C1NC(=O)C(c2c[nH]c3ccccc23)=C1c1c[nH]c2ccccc12  residual activity  %      55.5
 7    O=C1Cc2c([nH]c3ccc(Br)cc23)-c2ccccc2N1  residual activity  %      92.7
 8  O=C1Nc2ccccc2/C1=C1/Nc2ccccc2/C1=N\OCCC(O)CO (centres undefined)  residual activity  %      80.6
 9  CC(C)[C@H](CO)Nc1nc(Nc2cc(N)cc(Cl)c2)c2ncn(C(C)C)c2n1  residual activity  %      87.6
10         O=C1NC(=O)/C(=C\c2ccc3nccnc3c2)S1  residual activity  %      94.4
11  O=C(Nc1cccc(Nc2cc(Nc3cccc(C(F)(F)F)c3)ncn2)c1)C1CC1  residual activity  %       101
12                  Nc1nnc2[nH]c3ccccc3nc1-2  residual activity  %      98.3
13  O=C(CCCc1ccc(-c2ccccc2F)cc1)Nc1ccc(O)cc1  residual activity  %       110
